target: human mGlu4 receptor (Homo sapiens); construct: expressed in transfected cells; host or cells: HEK-293 (monoclonal, stably transfected); assay: Ca2+ mobilization in vitro assay on recombinant human mGlu4 expressed in HEK293 cells; format: cell-based; settings: HEK-293 cells stably expressing human mGlu4; L-AP4 added at EC20; Fluo-4 fluorescence; read-out: EC50 (uM) mGlu4 PAM
Sequence (Q14833 33-912): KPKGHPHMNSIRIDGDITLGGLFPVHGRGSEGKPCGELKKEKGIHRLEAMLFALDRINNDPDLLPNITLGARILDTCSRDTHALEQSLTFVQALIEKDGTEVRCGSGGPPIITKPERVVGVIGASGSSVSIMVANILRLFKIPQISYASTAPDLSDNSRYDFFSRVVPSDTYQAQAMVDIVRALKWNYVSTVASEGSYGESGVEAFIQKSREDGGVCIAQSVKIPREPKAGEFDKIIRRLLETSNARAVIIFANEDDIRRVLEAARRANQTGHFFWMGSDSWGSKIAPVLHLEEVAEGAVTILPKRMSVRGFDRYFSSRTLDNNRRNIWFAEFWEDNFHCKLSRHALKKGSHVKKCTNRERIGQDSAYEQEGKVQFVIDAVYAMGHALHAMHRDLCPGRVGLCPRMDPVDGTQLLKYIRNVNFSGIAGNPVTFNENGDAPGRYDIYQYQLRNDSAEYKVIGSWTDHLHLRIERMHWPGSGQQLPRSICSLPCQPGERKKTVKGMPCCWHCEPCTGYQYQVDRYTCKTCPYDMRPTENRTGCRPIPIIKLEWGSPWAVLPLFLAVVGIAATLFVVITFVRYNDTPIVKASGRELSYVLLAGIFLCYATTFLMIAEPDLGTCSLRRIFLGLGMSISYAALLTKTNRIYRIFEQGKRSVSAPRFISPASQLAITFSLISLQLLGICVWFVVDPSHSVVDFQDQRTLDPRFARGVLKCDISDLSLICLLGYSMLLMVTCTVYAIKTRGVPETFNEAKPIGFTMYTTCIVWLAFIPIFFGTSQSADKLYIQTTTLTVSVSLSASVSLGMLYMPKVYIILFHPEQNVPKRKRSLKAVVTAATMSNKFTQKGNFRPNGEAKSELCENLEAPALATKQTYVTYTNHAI
So basically, if EC50 comes in under 0.4 µM it's fulfilled, and if it's 0.4 µM or more it's not fulfilled.

Q: Confirm or reject: EC50 of CS(=O)(=O)c1cnc2n1C1(CC1)C(=O)N2c1c(F)cc(C#Cc2ccccc2)cc1F lies strictly below 0.4 µM
Ans: not fulfilled

Q: Quick check: does Cc1cnc2n1C1(CC1)C(=O)N2c1c(F)cc(NC(=O)c2ccccn2)cc1F have EC50 under 0.4 µM?
Ans: fulfilled

Q: hey, is EC50 for CC(O)c1cnc2n1C1(CC1)C(=O)N2c1c(F)cc(NC(=O)c2ccccn2)cc1F (centres unmarked) lower than 0.4 µM or not?
Ans: not fulfilled

Q: Please let me know if O=C1N(c2c(F)cc(N3CCN(CC(F)(F)F)CC3)cc2F)c2ncc(-c3cc[nH]n3)n2C12CC2 shows EC50 below 0.4 µM.
Ans: not fulfilled

Q: is_below(EC50, 0.4 µM) for Cn1cc(-c2cnc3n2C2(CC2)C(=O)N3c2c(F)cc(C#Cc3cccnc3)cc2F)cn1 ?
Ans: fulfilled

Q: Problem: For the compound O=C(Nc1ccccn1)c1cc(F)c(N2C(=O)C3(CC3)n3c(-c4ccccn4)cnc32)c(F)c1 , is EC50 under 0.4 µM?
Ans: not fulfilled

Q: Find out if reported EC50 for O=C1N(c2c(F)cc(C#Cc3ccccc3)cc2F)c2ncc(-c3cncnc3)n2C12CC2 is less than 0.4 µM
Ans: fulfilled

Q: hey, is EC50 for CC(F)(F)c1ccc(-c2cc(F)c(N3C(=O)C4(CC4)n4c(-c5cc[nH]n5)cnc43)c(F)c2)cc1 lower than 0.4 µM or not?
Ans: fulfilled
